Listing of entries alongside the reported pKd.
Molecular target: T1, I-CreI wild type (Chlamydomonas reinhardtii, UniProt P05725 SEQ:1-163)
T1 sequence: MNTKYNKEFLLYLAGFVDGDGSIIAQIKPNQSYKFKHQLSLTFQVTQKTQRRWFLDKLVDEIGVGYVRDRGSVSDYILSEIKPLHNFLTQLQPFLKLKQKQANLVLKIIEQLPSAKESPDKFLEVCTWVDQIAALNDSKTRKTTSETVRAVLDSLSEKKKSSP
Experiment: FP; 400 mM NaCl, 10 mM CaCl2, pH8, 25 C; no saturation
Conditions: tags: C-terminal 6xHis, E. coli BL21; chain copies: 2 (inferred); label: 5' fluorescein on forward strand
pKd: −log10 of the molar value.

C1234_Me full (dsDNA, 5mC at -6a, -3a, -5b, -2b) DNA 1: TCAAAACGTCGTGAGACAGTTTGG DNA 2: CCAAACTGTCTCACGACGTTTTGA: < 6.00

Retrieve pKd measured for C1234_Me-5b/-2b (dsDNA, 5mC at -5b, -2b) DNA 1: TCAAAACGTCGTGAGACAGTTTGG DNA 2: CCAAACTGTCTCACGACGTTTTGA and print it.
< 6.00

src = patent US20130196320A1
